- test_name: Cmax in New-Zealand rabbit at 33 mg/kg dosed through vaginal administration by LC-MS/MS method
- Type: ADME, organism-based, Oryctolagus cuniculus
- Set-up: dose 33 mg/kg
- test_settings: in vivo
quantity_measured: Cmax (ng/mL)
Numbers only here, please. The scale is ng/mL.

given_smiles	Cmax (ng/mL)
CCCCCCCCCc1ccc(OCCOCCOCCOCCOCCOCCOCCOCCOCCO)cc1	3.66

Request the reported Cmax associated with `CCCCNC(=S)N1CCN(CCC(=O)c2ccccc2)CC1` 4.43

----------
- test_name: Stability in simulated vaginal fluid at pH 4.2 at 200 ng/ml by LC-MS/MS method
- test_settings: buffer
Below: a set of entries, each annotated with reported Stability.

given_smiles	Stability
CCCCNC(=S)N1CCN(CCC(=O)c2ccccc2)CC1	> 1 h

The record that follows has no Stability shown yet.
Request the reported Stability associated with `CCCCCCCCCc1ccc(OCCOCCOCCOCCOCCOCCOCCOCCOCCO)cc1` > 1 h
